What follows is a collection of MIC values obtained with Escherichia coli ATCC 10536.
Your answer should be a plain number; it is taken to be in µg/mL.

*Q* Report MIC for "CCO/N=C(\C(=O)N[C@@H]1C(=O)N2C(C(=O)[O-])=C(CSc3cc(N)nc(N)[n+]3CC)CS[C@H]12)c1nsc(N)n1" tested on Escherichia coli ATCC 10536.
*A* 0.13

*Q* Report MIC for "CC[n+]1c(N)cc(SCC2=C(C(=O)[O-])N3C(=O)[C@@H](NC(=O)/C(=N\OC(C)(C)C(=O)O)c4csc(N)n4)[C@H]3SC2)nc1N" tested on Escherichia coli ATCC 10536.
*A* 0.13

*Q* Report MIC for "CO/N=C(\C(=O)N[C@@H]1C(=O)N2C(C(=O)[O-])=C(CSc3cc(N)nc(N)[n+]3C)CS[C@H]12)c1csc(N)n1" tested on Escherichia coli ATCC 10536.
*A* 0.13

*Q* Report MIC for CC[n+]1c(N)nc(N)nc1SCC1=C(C(=O)[O-])N2C(=O)C(NC(=O)/C(=N\OC(C)(C)C(=O)O)c3csc(N)n3)[C@H]2SC1 (stereo partly drawn) tested on Escherichia coli ATCC 10536.
*A* 0.13

*Q* Report MIC for "C[n+]1c(N)cc(SCC2=C(C(=O)[O-])N3C(=O)[C@@H](NC(=O)/C(=N\OC(C)(C)C(=O)O)c4csc(N)n4)[C@H]3SC2)nc1N" tested on Escherichia coli ATCC 10536.
*A* 0.25

*Q* Report MIC for "CC[n+]1c(N)cc(SCC2=C(C(=O)[O-])N3C(=O)[C@@H](NC(=O)/C(=N\OC)c4csc(N)n4)[C@H]3SC2)nc1N" tested on Escherichia coli ATCC 10536.
*A* 0.063

*Q* Report MIC for CC(C)(O/N=C(\C(=O)N[C@@H]1C(=O)N2C(C(=O)[O-])=C(C[n+]3ccccc3)CS[C@H]12)c1csc(N)n1)C(=O)O [Ceftazidime, reference compound] tested on Escherichia coli ATCC 10536.
*A* 0.13

*Q* Report MIC for "C[n+]1c(N)cc(SCC2=C(C(=O)[O-])N3C(=O)[C@@H](NC(=O)/C(=N\OCC(=O)O)c4csc(N)n4)[C@H]3SC2)nc1N" tested on Escherichia coli ATCC 10536.
*A* 0.031

*Q* Report MIC for "C[n+]1c(SCC2=C(C(=O)[O-])N3C(=O)[C@@H](NC(=O)/C(=N\OC(C)(C)C(=O)O)c4csc(N)n4)[C@H]3SC2)cc(N)nc1N" tested on Escherichia coli ATCC 10536.
*A* 0.13

*Q* Report MIC for "CC[n+]1c(N)cc(SCC2=C(C(=O)[O-])N3C(=O)[C@@H](NC(=O)/C(=N\OCC(=O)O)c4csc(N)n4)[C@H]3SC2)nc1N" tested on Escherichia coli ATCC 10536.
*A* 0.063

*Q* Report MIC for "CC[n+]1c(SCC2=C(C(=O)[O-])N3C(=O)[C@@H](NC(=O)/C(=N\OC(C)(C)C(=O)O)c4csc(N)n4)[C@H]3SC2)cc(N)nc1N" tested on Escherichia coli ATCC 10536.
*A* 0.063

*Q* Report MIC for CC[n+]1c(SCC2=C(C(=O)[O-])N3C(=O)[C@@H](NC(=O)/C(=N\OC(C)C(=O)O)c4csc(N)n4)[C@H]3SC2)cc(N)nc1N (stereo partly drawn) tested on Escherichia coli ATCC 10536.
*A* 0.13

Data origin, for the record: patent US5292733A
